Hello, the source for this data is patent US7166440B2, in case you need it.

# Tested on: monoclonal antibody of clone C-2 (anti-dioxin antibody)
# METHOD_DESCRIPTION: Competitive EIA: inhibition of binding of clone C-2 monoclonal antibody to solid-phase antigen by free dioxin
# Set-up: species or system mouse
# CONDITION_DESCRIPTION: solid-phase antigen * (haptenized product of 6-(2,4,5-trichlorophenoxy) hexanoic acid amide derivative IIa), dioxin compound 5×10^−7 M
# Protocol: Using various monoclonal antibodies, the specificity of the monoclonal antibodies to dioxin isomers was examined. The monoclonal antibodies were prepared in the following manner. […] To evaluate the specificity of the monoclonal antibody was performed according to the following principles. […] This reduction of the binding of the monoclonal antibody to the solid-phase antigen can be measured by color development method. […]
Entries and their measured Inhibition rate follow.
Entry rule: numbers only, all in %.

Answered examples (4):
Clc1cc2c(c(Cl)c1Cl)Oc1c(Cl)c(Cl)c(Cl)c(Cl)c1O2
−3.2
Clc1cc2c(cc1Cl)Oc1c(Cl)c(Cl)c(Cl)c(Cl)c1O2
19.1
Clc1cc2oc3c(Cl)c(Cl)c(Cl)c(Cl)c3c2cc1Cl
−11.2
Clc1cc2oc3c(Cl)c(Cl)c(Cl)cc3c2cc1Cl
55.0

Field Inhibition rate (entry "Clc1cc2c(c(Cl)c1Cl)Oc1cc(Cl)c(Cl)c(Cl)c1O2" ) reads 2.2

Field Inhibition rate (entry "Clc1cc2oc3cc(Cl)c(Cl)cc3c2cc1Cl" ) reads 37.6

====

# System: monoclonal antibody of clone C-3 (anti-dioxin antibody)
# METHOD_DESCRIPTION: Competitive EIA: inhibition of binding of clone C-3 monoclonal antibody to solid-phase antigen by free dioxin
# Design: species or system mouse
# CONDITION_DESCRIPTION: solid-phase antigen * (haptenized product of 6-(2,4,5-trichlorophenoxy) hexanoic acid amide derivative IIa), dioxin compound 5×10^−7 M
# Description: Using various monoclonal antibodies, the specificity of the monoclonal antibodies to dioxin isomers was examined. The monoclonal antibodies were prepared in the following manner. […] To evaluate the specificity of the monoclonal antibody was performed according to the following principles. […] This reduction of the binding of the monoclonal antibody to the solid-phase antigen can be measured by color development method. […]
Entries and their measured Inhibition rate follow.
The number alone won't do; follow it with the unit.

Answered examples (4):
Clc1cc2oc3c(Cl)c(Cl)c(Cl)c(Cl)c3c2c(Cl)c1Cl [1,2,3,4,7,8,9-HpCDF]
11.3%
Clc1cc2c(cc1Cl)Oc1cc(Cl)c(Cl)cc1O2 [2,3,7,8-TeCDD, 2,3,7,8-tetrachlorozibenzo-p-dioxin]
−3.4%
Clc1cc2oc3cc(Cl)c(Cl)cc3c2cc1Cl [2,3,7,8-TeCDF]
4.3%
Clc1cc2c(cc1Cl)Oc1c(Cl)c(Cl)c(Cl)c(Cl)c1O2 [1,2,3,4,7,8-HxCDD]
−2.3%

Field Inhibition rate (entry Clc1cc2c(oc3c(Cl)c(Cl)c(Cl)cc32)c(Cl)c1Cl [2,3,4,6,7,8-HxCDF] ) reads 47.9%

Field Inhibition rate (entry Clc1cc2c(c(Cl)c1Cl)Oc1c(cc(Cl)c(Cl)c1Cl)O2 [1,2,3,7,8,9-HxCDD] ) reads 28.6%

Field Inhibition rate (entry Clc1cc2c(c(Cl)c1Cl)Oc1c(Cl)c(Cl)c(Cl)c(Cl)c1O2 [1,2,3,4,6,7,8-HpCDD] ) reads 2.1%

Field Inhibition rate (entry Clc1cc2oc3c(Cl)c(Cl)c(Cl)c(Cl)c3c2cc1Cl [1,2,3,4,7,8-HxCDF] ) reads 0.8%

Field Inhibition rate (entry Clc1cc2c(cc1Cl)Oc1c(cc(Cl)c(Cl)c1Cl)O2 [1,2,3,7,8-PeCDD] ) reads 31.2%
